Cited source for all entries: the Human Domainome abundance scans (Beltran et al. 2025)

B1: Cyclin-F, residues 28 to 80; numbered along this chain, P41002 (parent)
chain: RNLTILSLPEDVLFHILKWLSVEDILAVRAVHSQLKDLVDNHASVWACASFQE

Variants of: B1
assayComment: abundance fitness (aPCA) (normalised: wild type 0, dead -1); higher = more abundant; growth selection in yeast, the domain comes from the species named
conditionSet: Homo sapiens
valueKind: abundance fitness
Answer with a number only.

Form field abundance fitness, entry "I16E" : -0.773

Form field abundance fitness, entry "A43E" : -0.343

Form field abundance fitness, entry "L20T" : -0.923

Form field abundance fitness, entry "A49I" : -0.409

Form field abundance fitness, entry "H42E" : -0.8

Form field abundance fitness, entry "K18V" : -0.452

Form field abundance fitness, entry "C48H" : -0.302

Form field abundance fitness, entry "V28M" : 0.036

Form field abundance fitness, entry "N41M" : -0.272

Form field abundance fitness, entry "V39P" : -0.931

Form field abundance fitness, entry "D24T" : -0.68

Form field abundance fitness, entry "D40A" : -0.917

Form field abundance fitness, entry "K36L" : -0.625

Form field abundance fitness, entry "T4W" : -0.65

Form field abundance fitness, entry "D11S" : 0.093

Form field abundance fitness, entry "N2K" : -0.182

Form field abundance fitness, entry "K18S" : -0.215

Form field abundance fitness, entry "L8T" : -0.651

Form field abundance fitness, entry "S44R" : -0.281

Form field abundance fitness, entry "V22T" : -0.168

Form field abundance fitness, entry "L17G" : -0.547
